Values from ChEMBL document CHEMBL1938233

# run.description: Apparent permeability from basolateral to apical side of human Caco2 cells at pH 7.4 after 2 hrs by LC/MS/MS analysis
# Type: ADME, cell-based
# applied.conditions: Caco-2, pH 7.4
# label = Condition met if Papp B→A at 2 h >= 10 ×10⁻⁶ cm/s else Condition not met

Previously resolved entries follow.
Threshold query (Papp B→A at 2 h >= 10 ×10⁻⁶ cm/s) on Cc1ccc(NS(=O)(=O)c2ccc3c(c2)CCC(=O)N3)cc1C
Condition met

Tell me whether Papp B→A at 2 h is at least 10 ×10⁻⁶ cm/s here: C[C@@H](CO)Nc1cc2c(cc1S(=O)(=O)Nc1ccc(F)c(Cl)c1)CCC(=O)N2
Condition met

Textbook exercise: given the entry O=C1CCc2cc(S(=O)(=O)Nc3ccc(F)c(Cl)c3)c(F)cc2N1 , state whether its Papp B→A at 2 h is greater than or equal to 10 ×10⁻⁶ cm/s.
Condition not met

Quick check, Papp B→A at 2 h >= 10 ×10⁻⁶ cm/s? Cc1ccc(NS(=O)(=O)c2cc3c(cc2N[C@@H](C)CO)NC(=O)CC3)cc1Cl
Condition met

More entries:
Determine whether measured Papp B→A at 2 h meets or exceeds 10 ×10⁻⁶ cm/s for Cc1ccc(NS(=O)(=O)c2cc3c(cc2F)NC(=O)CC3)cc1Cl
Condition not met

* * *

# Test system: Caco-2
# run.description: Efflux ratio of permeability from basolateral to apical side over apical to basolateral side in human Caco2 cells at pH 7.4 after 2 hrs by LC/MS/MS analysis
# applied.conditions: caco-2, pH 7.4, 2 h
measure: Ratio
// keep it numeric: no unit symbol after the value

// below: answered compounds
Returns the measured Ratio for the input compound. Input: Cc1ccc(NS(=O)(=O)c2cc3c(cc2F)NC(=O)CC3)cc1Cl
1

I would be grateful if you could share the reported Ratio for Cc1ccc(NS(=O)(=O)c2ccc3c(c2)CCC(=O)N3)cc1C .
0.82

Give its Ratio value. Item: C[C@@H](CO)Nc1cc2c(cc1S(=O)(=O)Nc1ccc(F)c(Cl)c1)CCC(=O)N2
10.91

Further cases:
Quick check: Ratio of Cc1ccc(NS(=O)(=O)c2cc3c(cc2N[C@@H](C)CO)NC(=O)CC3)cc1Cl ?
10.51

Recorded Ratio of O=C1CCc2cc(S(=O)(=O)Nc3ccc(F)c(Cl)c3)c(F)cc2N1 , please.
0.84

* * *

# test.target: Pyruvate kinase PKM (Homo sapiens, UniProt P14618)
# Sequence (P14618 2-531 limits assumed): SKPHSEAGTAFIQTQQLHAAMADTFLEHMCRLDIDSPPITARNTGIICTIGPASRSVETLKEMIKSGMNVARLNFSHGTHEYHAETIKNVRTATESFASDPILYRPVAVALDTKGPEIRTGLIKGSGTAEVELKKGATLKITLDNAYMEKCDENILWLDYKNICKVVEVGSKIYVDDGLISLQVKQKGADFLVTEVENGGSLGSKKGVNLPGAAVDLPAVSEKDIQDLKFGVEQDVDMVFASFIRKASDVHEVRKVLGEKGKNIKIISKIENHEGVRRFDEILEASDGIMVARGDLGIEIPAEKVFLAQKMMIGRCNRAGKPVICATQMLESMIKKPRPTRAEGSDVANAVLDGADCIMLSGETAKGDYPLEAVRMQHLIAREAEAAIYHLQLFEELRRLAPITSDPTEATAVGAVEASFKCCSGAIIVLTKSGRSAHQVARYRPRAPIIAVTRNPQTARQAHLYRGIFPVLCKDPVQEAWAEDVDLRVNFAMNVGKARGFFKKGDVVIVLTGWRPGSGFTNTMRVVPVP
# run.description: Activation of human PKM2 assessed as ATP product formation at 57 uM after 1 hr by luminescent pyruvate-kinase luciferase coupled assay
measure: Emax

Consider the reported Emax for these compounds:
Item under review: O=C1CCc2cc(S(=O)(=O)Nc3ccc(Cl)cc3)ccc2N1 . Reported Emax?
106%

Name the reported Emax value associated with the compound COc1cccc(NS(=O)(=O)c2ccc3c(c2)CCC(=O)N3)c1
115%

Reported Emax for Cc1cc(NS(=O)(=O)c2ccc3c(c2)CCC(=O)N3)ccc1F : what is it?
128%

Need Emax, item O=C1CCc2cc(S(=O)(=O)Nc3ccc4c(c3)OCCO4)ccc2N1
100%

Which Emax value is on record for COc1ccc(NS(=O)(=O)c2ccc3c(c2)CCC(=O)N3)cc1 ?
85%

***
Consider the compound Cc1ccc(NS(=O)(=O)c2ccc3c(c2)CCC(=O)N3)cc1F and give its measured Emax.
138%

// Emax lookup, key: O=C1CCc2cc(S(=O)(=O)Nc3ccc(F)c(Cl)c3)ccc2N1
123%

Give its Emax value. Item: O=C1CCc2cc(S(=O)(=O)Nc3ccc4ccccc4c3)ccc2N1
121%

* * *

# run.description: Apparent permeability from apical to basolateral side of human Caco2 cells at pH 7.4 after 2 hrs by LC/MS/MS analysis
# Assay type: ADME, cell-based
# applied.conditions: Caco-2, pH 7.4
measure: Papp A→B at 2 h (×10⁻⁶ cm/s)
Answer format: numeric, ×10⁻⁶ cm/s implied, no suffix.

Please give the measured Papp A→B at 2 h for this molecule: Cc1ccc(NS(=O)(=O)c2ccc3c(c2)CCC(=O)N3)cc1C
14.9

Return reported Papp A→B at 2 h; argument: Cc1ccc(NS(=O)(=O)c2cc3c(cc2N[C@@H](C)CO)NC(=O)CC3)cc1Cl
1.13

Return reported Papp A→B at 2 h; argument: O=C1CCc2cc(S(=O)(=O)Nc3ccc(F)c(Cl)c3)c(F)cc2N1
9.38

Reported Papp A→B at 2 h, molecule Cc1ccc(NS(=O)(=O)c2cc3c(cc2F)NC(=O)CC3)cc1Cl : ____
6.22

Next up:
Which Papp A→B at 2 h is listed for C[C@@H](CO)Nc1cc2c(cc1S(=O)(=O)Nc1ccc(F)c(Cl)c1)CCC(=O)N2 ?
1.61

* * *

# test.target: Pyruvate kinase PKM (Homo sapiens, UniProt P14618)
# run.description: Activation of human PKM2 assessed as ATP product formation at 57 µM after 1 hr by luminescent pyruvate kinase-luciferase coupled assay
measure: Emax

The examples below pair each entry with its known result.
For the record Cc1ccc(NS(=O)(=O)c2cc3c(cc2Cl)CCC(=O)N3)cc1Cl , what value of Emax is listed for Pyruvate kinase PKM (Homo sapiens, UniProt P14618)?
109%

Lookup: Emax / Pyruvate kinase PKM (Homo sapiens, UniProt P14618) / Cc1ccc(NS(=O)(=O)c2ccc3c(c2)N(C)CCO3)cc1C
81%

Give the reported Emax for Cc1ccc(NS(=O)(=O)c2ccc3c(c2)CCC(C)(C)O3)cc1C (system: Pyruvate kinase PKM (Homo sapiens, UniProt P14618)).
62%

Notebook entry, Pyruvate kinase PKM (Homo sapiens, UniProt P14618) assay: Emax of CC(=O)N1CCc2cc(S(=O)(=O)Nc3ccc(C)c(C)c3)ccc21 = ?
96%

New cases:
Form: Entry = CCN(CC)c1cc2c(cc1S(=O)(=O)Nc1ccc(C)c(C)c1)CCC(=O)N2 | System = Pyruvate kinase PKM (Homo sapiens, UniProt P14618) | Emax = ____
106%

Can you look up Emax on Pyruvate kinase PKM (Homo sapiens, UniProt P14618) for Cc1ccc(NS(=O)(=O)c2cc3c(cc2N(C)C)NC(=O)CC3)cc1C ?
129%

Record Cc1ccc(NS(=O)(=O)c2ccc(N3CCCC3=O)cc2)cc1C : what is its Emax with Pyruvate kinase PKM (Homo sapiens, UniProt P14618)?
60%

Can you look up Emax on Pyruvate kinase PKM (Homo sapiens, UniProt P14618) for Cc1ccc(NS(=O)(=O)c2ccc3c(c2)oc(=O)n3C)cc1C ?
95%

Recorded Emax for Cc1ccc(NS(=O)(=O)c2cc3c(cc2N2CCCC2)NC(=O)CC3)cc1C with Pyruvate kinase PKM (Homo sapiens, UniProt P14618), please?
123%

Can you look up Emax on Pyruvate kinase PKM (Homo sapiens, UniProt P14618) for Cc1ccc(NS(=O)(=O)c2ccc3c(c2)NC(=O)CO3)cc1C ?
81%

Tell me reported Emax for CC(=O)Nc1ccc(S(=O)(=O)Nc2ccc(C)c(C)c2)cc1 , tested with Pyruvate kinase PKM (Homo sapiens, UniProt P14618).
< 40%

Please provide the recorded Emax for Cc1ccc(NS(=O)(=O)c2cc3c(cc2N[C@H](C)CO)NC(=O)CC3)cc1C , tested on Pyruvate kinase PKM (Homo sapiens, UniProt P14618).
108%

Please provide the recorded Emax for Cc1ccc(NS(=O)(=O)c2cc3c(cc2C)NC(=O)CO3)cc1C , tested on Pyruvate kinase PKM (Homo sapiens, UniProt P14618).
111%

// fetch Pyruvate kinase PKM (Homo sapiens, UniProt P14618) Emax for Cc1ccc(NS(=O)(=O)c2cc3c(cc2NC(C)CO)NC(=O)CC3)cc1C (racemic)
124%

* * *

# Test system: Liver
# run.description: Half life in mouse liver microsomes at 2 uM after 2 mins by LC/MS/MS analysis
# Format: ADME, Microsome
measure: t1/2 (min)
Quick note: give the figure in min, leave out the unit.

Worked cases, t1/2 given:
For the compound shown here, Cc1ccc(NS(=O)(=O)c2cc3c(cc2F)NC(=O)CC3)cc1C , give the reported t1/2.
34.3

Entry under review: C[C@@H](CO)Nc1cc2c(cc1S(=O)(=O)Nc1ccc(F)c(Cl)c1)CCC(=O)N2 . Reported t1/2?
36.3

Which t1/2 is listed for Cc1ccc(NS(=O)(=O)c2cc3c(cc2N[C@@H](C)CO)NC(=O)CC3)cc1Cl ?
22.9

What value of measured t1/2 is listed for CNc1cc2c(cc1S(=O)(=O)Nc1ccc(C)c(C)c1)CCC(=O)N2 ?
19.1

Tell me the measured t1/2 of Cc1ccc(NS(=O)(=O)c2cc3c(cc2N(C)C)NC(=O)CC3)cc1C , please.
21.7

I'd like to know its t1/2. The compound in question is Cc1ccc(NS(=O)(=O)c2cc3c(cc2F)NC(=O)CC3)cc1Cl
54.1

// returns reported t1/2 for input Cc1ccc(NS(=O)(=O)c2ccc3c(c2)CCC(=O)N3)cc1C
17.3

Let us move to another entry and its t1/2.
Query (compound): O=C1CCc2cc(S(=O)(=O)Nc3ccc(F)c(Cl)c3)c(F)cc2N1 ; field requested: t1/2
117.5
